- EXPERIMENT: NCI Yeast Anticancer Drug Screen. Data for the bub3 strain (AID 167)
- CONDITION_PARAMETERS: S. cerevisiae bub3 mutant strain, at 50.0 µM, hits give high values
Compounds without any hit were thinned out: in the full panel of roughly 79,000, 15% have a hit. Activity calls are given as the source filed them. Cut-off read from the data, not from the text of the source: active = growth inhibition above about 70%; inactive = the rest.
READOUT_KIND: growth inhibition

Enquiry: Endpoint output: growth inhibition of `Cc1nnc2n(c1=O)CCN2C` . Value?
Return: 7.8% (inactive)

Enquiry: One more molecule: `O=C1c2ccccc2C(=O)N1/N=[N+](\[O-])N1Cc2ccccc2C1`
Return: 7.65% (inactive)

Enquiry: One more molecule: CC(=O)O.Cl.NC1C([O-])OC(CO)C(O)C1O.O=C1OC(C(O)CO)C([O-])=C1[OH2+].[Cu+2] (stereo not drawn)
Return: 5.05% (inactive)

Enquiry: One more molecule: `N#CCCN(c1ccc(C=O)cc1)S(=O)(=O)c1ccccc1`
Return: -13.4% (inactive)

Enquiry: One more molecule: `Oc1ccccc1CN1CCOCC1`
Return: -7.2% (inactive)

Enquiry: One more molecule: CC1(C=O)C(=O)CCC2(C)C3CC(=O)OC3CCC12 (stereo not drawn)
Return: -17.7% (inactive)

Enquiry: One more molecule: Cc1ccc(S(=O)(=O)OCC2CC=CCC2COS(=O)(=O)c2ccc(C)cc2)cc1 (stereo not drawn)
Return: 6% (inactive)

Enquiry: One more molecule: N#CC1C2C1C1C=CC2n2c(=O)n(-c3ccccc3)c(=O)n21 (stereo not drawn)
Return: 7.15% (inactive)

Enquiry: One more molecule: COC1OC(COC(c2ccccc2)(c2ccccc2)c2ccccc2)C2OC12 (stereo not drawn)
Return: 1.3% (inactive)

Enquiry: One more molecule: `COCCOCOC(C)(C)CCCCl`
Return: -2.1% (inactive)

Enquiry: One more molecule: `Cc1cc2c(c(S(=O)(=O)c3ccccc3[N+](=O)[O-])c1)NCCC2`
Return: 14.8% (inactive)

Enquiry: One more molecule: `O=C(O)c1cccc(CO)c1O`
Return: 6.75% (inactive)

Enquiry: One more molecule: `Cn1c(=O)c2conc2n(-c2ccc(Cl)cc2)c1=O`
Return: 2.55% (inactive)

Enquiry: One more molecule: CC(=O)OCC1OC(n2nnc3c(=O)n(C)c(=O)[nH]c32)C(OC(C)=O)C(OC(C)=O)C1OC(C)=O (stereo not drawn)
Return: 8.9% (inactive)

Enquiry: One more molecule: CC1C[C@]2(C)C(=O)N(c3ccccc3)C(=N)[C@@H]2N(C)c2ccccc21 (stereo partly drawn)
Return: 25.9% (inactive)

Enquiry: One more molecule: `Oc1cc(CN2COc3ccccc32)c(O)cc1CNC1CCCCC1`
Return: -33.7% (inactive)

Enquiry: One more molecule: CCOC(=O)CC1CN(C(=O)c2ccccc2)CCC12OCCO2 (stereo not drawn)
Return: -2.35% (inactive)

Enquiry: One more molecule: `O=C(CNC(=O)c1ccccc1)Nc1ccc([N+](=O)[O-])cc1`
Return: 22.6% (inactive)
